Below, each of the molecules is paired with its reported log10 of Ki value.
Biological target: UniProt:P34972
Test: Displacement of [3H]CP-55940 from human recombinant CB2 receptor expressed in HEK293 cell membranes incubated for 1.5 hrs
Could you please treat all values as log10 of Ki in nM?

Here is how some molecules turned out for log10 of Ki.
>>> df
                            chemical_smiles  target_under_test  measured_quantity  measured_number
0     CC(C)c1nc2ccccc2n1C(=O)c1cccc2ccccc12     UniProt:P34972        log10 of Ki             2.70
1     CCCCCc1sc2ccccc2c1C(=O)c1cccc2ccccc12     UniProt:P34972        log10 of Ki             2.48
2  O=C(c1cccc2ccccc12)n1c(C2CCC2)nc2ccccc21     UniProt:P34972        log10 of Ki             3.15
3  COc1ccc(C(=O)c2c(-c3ccc(OC)cc3)sc3ccccc23)cc1     UniProt:P34972        log10 of Ki             2.00
4  COc1ccc(C(=O)n2c(C3CCCCC3)nc3ccccc32)cc1     UniProt:P34972        log10 of Ki             2.85
5  COc1ccc(-c2sc3ccccc3c2C(=O)c2cccc3ccccc23)cc1     UniProt:P34972        log10 of Ki             2.48
6  O=C(c1cccc2ccccc12)n1c(C2CCCC2)nc2ccccc21     UniProt:P34972        log10 of Ki             2.85
7   COc1ccc(C(=O)n2c(C3CCCC3)nc3ccccc32)cc1     UniProt:P34972        log10 of Ki             2.70

Consider the molecule COc1ccc(C(=O)n2c(C3CCC3)nc3ccccc32)cc1 and give its measured log10 of Ki.
2.95

* * *

Target: Cannabinoid receptor 2 (Homo sapiens)
Sequence (P34972 whole entry): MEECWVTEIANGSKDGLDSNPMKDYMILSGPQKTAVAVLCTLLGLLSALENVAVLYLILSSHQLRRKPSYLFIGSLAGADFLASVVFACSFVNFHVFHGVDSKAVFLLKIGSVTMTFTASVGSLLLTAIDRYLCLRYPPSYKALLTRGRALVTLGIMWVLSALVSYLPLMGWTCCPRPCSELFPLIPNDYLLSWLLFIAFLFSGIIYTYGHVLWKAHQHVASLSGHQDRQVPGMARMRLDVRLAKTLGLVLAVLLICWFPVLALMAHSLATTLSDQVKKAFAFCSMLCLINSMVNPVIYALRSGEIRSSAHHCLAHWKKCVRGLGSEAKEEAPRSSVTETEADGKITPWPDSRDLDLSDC
Experiment: Displacement of [3H]CP-55940 from human recombinant CB2 receptor expressed in HEK293 cell membranes incubated for 1.5 hrs
pKi: −log10 of the molar value.
Tick 1.0 if pKi is 6 or greater. Tick 0.0 if pKi is less than 6.

Decide: pKi of COc1ccc(C(=O)n2c(C(C)(C)C)nc3ccccc32)cc1 >= 6?
1.0

hey, is pKi for this one >= 6? CC(C)Cc1nc2ccccc2n1C(=O)c1cccc2ccccc12
1.0

For this molecule, is measured pKi 6 or higher? CCCCCc1sc2ccccc2c1C(=O)c1ccc(OC)cc1
1.0

Does COc1ccc(C(=O)c2c(CC(C)C)sc3ccccc23)cc1 have a reported pKi of at least 6?
1.0

Check this molecule for pKi at or above 6: O=C(c1cccc2ccccc12)n1c(C2CCCCC2)nc2ccccc21
1.0

API: above_or_equal(metric=pKi, cutoff=6) for item CC(C)(C)c1nc2ccccc2n1C(=O)c1cccc2ccccc12
1.0

For this molecule, is measured pKi 6 or higher? CCCCc1nc2ccccc2n1C(=O)c1cccc2ccccc12
1.0

* * *

Experiment: Cytotoxicity against African green monkey Vero cells assessed as reduction in cell viability measured after 72 hrs by MTT assay
Type: toxicity, cell-based
Details: Chlorocebus sabaeus (African green monkey)
Recorded IC50 at 72 h by entry

Solved cases below.
molecule	IC50 at 72 h
CC(C)Cc1nc2ccccc2n1C(=O)c1cccc2ccccc12	> 10 µM
CCCCCc1sc2ccccc2c1C(=O)c1ccc(OC)cc1	> 10 µM
CCc1sc2ccccc2c1C(=O)c1ccc(OC)cc1	> 10 µM

Fill in: IC50 at 72 h of COc1ccc(C(=O)n2c(C)nc3ccccc32)cc1 is ___
1.23 µM

Suppose we examine the molecule COc1cc([C@@H]2c3cc4c(cc3[C@@H](O[C@@H]3O[C@@H]5CO[C@@H](C)O[C@H]5[C@H](O)[C@H]3O)[C@H]3COC(=O)[C@H]23)OCO4)cc(OC)c1O [ETOPOSIDE] ; what IC50 at 72 h value has been reported?
1.5 µM

Dear colleague, I am looking for the recorded IC50 at 72 h of the following molecule: O=C(c1cccc2ccccc12)n1c(C2CCCCC2)nc2ccccc21
> 10 µM

* * *

Assay: Cytotoxicity against African green monkey Vero cells assessed as reduction in cell viability measured after 72 hrs by MTT assay
Assay type: toxicity, cell-based
Details: Chlorocebus sabaeus (African green monkey)
measured_quantity: IC50 at 72 h

Field: example entries. Status: answers known.
                          chemical_smiles   result
0  CC(C)Cc1sc2ccccc2c1C(=O)c1cccc2ccccc12  > 10 µM
1    CCCCc1nc2ccccc2n1C(=O)c1cccc2ccccc12   4.1 µM

Kindly consider the entry below.
May I ask what IC50 at 72 h has been recorded for CCc1sc2ccccc2c1C(=O)c1cccc2ccccc12 ?
> 10 µM

* * *

Target: Cannabinoid receptor 1 (Homo sapiens, UniProt P21554)
Sequence (P21554 whole entry): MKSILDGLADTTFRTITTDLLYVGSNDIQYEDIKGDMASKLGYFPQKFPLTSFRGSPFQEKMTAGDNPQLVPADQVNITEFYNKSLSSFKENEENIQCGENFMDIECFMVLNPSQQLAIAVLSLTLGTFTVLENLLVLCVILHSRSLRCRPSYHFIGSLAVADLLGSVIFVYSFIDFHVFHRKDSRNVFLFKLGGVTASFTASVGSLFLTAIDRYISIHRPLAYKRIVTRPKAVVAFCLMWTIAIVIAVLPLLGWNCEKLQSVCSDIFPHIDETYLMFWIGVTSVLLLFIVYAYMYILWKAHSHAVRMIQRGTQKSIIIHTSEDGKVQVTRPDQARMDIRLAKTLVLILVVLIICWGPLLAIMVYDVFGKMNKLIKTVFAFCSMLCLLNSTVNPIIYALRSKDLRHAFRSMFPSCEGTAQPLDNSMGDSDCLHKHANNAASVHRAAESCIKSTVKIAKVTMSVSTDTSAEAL
Experiment: Displacement of [3H]CP-55940 from human recombinant CB1 receptor expressed in HEK293 cell membranes incubated for 1.5 hrs
pKi: −log10 of the molar value.
measured_quantity: pKi

                            chemical_smiles  result
0  COc1ccc(C(=O)n2c(-c3ccc(OC)cc3)nc3ccccc32)cc1  < 5.00
1  COc1ccc(-c2sc3ccccc3c2C(=O)c2cccc3ccccc23)cc1    5.29
2  COc1ccc(C(=O)c2c(-c3ccc(OC)cc3)sc3ccccc23)cc1    6.15
3  O=C(c1cccc2ccccc12)n1c(C2CCCC2)nc2ccccc21  < 5.00
4      CCCCc1nc2ccccc2n1C(=O)c1cccc2ccccc12    5.23
5         Cc1nc2ccccc2n1C(=O)c1cccc2ccccc12  < 5.00
6       CCCCCc1sc2ccccc2c1C(=O)c1ccc(OC)cc1  < 5.00
7          O=C(c1cc2ccccc2s1)c1cccc2ccccc12    5.57
8         COc1ccc(C(=O)n2c(C)nc3ccccc32)cc1  < 5.00
9       CCCc1sc2ccccc2c1C(=O)c1cccc2ccccc12    6.22

Which pKi is reported for this compound? CCCc1sc2ccccc2c1C(=O)c1ccc(OC)cc1
< 5.00

Would you mind telling me what pKi value was observed for CC(C)Cc1sc2ccccc2c1C(=O)c1cccc2ccccc12 ?
6.15

* * *

Target: Cannabinoid receptor 1 (Homo sapiens)
Experiment: Displacement of [3H]CP-55940 from human recombinant CB1 receptor expressed in HEK293 cell membranes incubated for 1.5 hrs
pIC50: −log10 of the molar value.
measured_quantity: pIC50

>>> df
                            chemical_smiles  result
0          O=C(c1cccc2ccccc12)c1csc2ccccc12  < 5.00
1        CCCCc1nc2ccccc2n1C(=O)c1ccc(OC)cc1  < 5.00
2    CC(C)Cc1sc2ccccc2c1C(=O)c1cccc2ccccc12    5.92
3  CC(C)(C)c1nc2ccccc2n1C(=O)c1cccc2ccccc12  < 5.00
4  COc1ccc(C(=O)c2c(-c3ccc(OC)cc3)sc3ccccc23)cc1    5.96
5         CCCc1nc2ccccc2n1C(=O)c1ccc(OC)cc1  < 5.00

# lookup: pIC50 of CCc1sc2ccccc2c1C(=O)c1ccc(OC)cc1
< 5.00

Look at this compound and give its reported pIC50. O=C(c1cccc2ccccc12)n1c(C2CCCC2)nc2ccccc21
< 5.00

Look up pIC50: COc1ccc(C(=O)c2c(CC(C)C)sc3ccccc23)cc1
5.12

// lookup pIC50 for CCCc1nc2ccccc2n1C(=O)c1cccc2ccccc12
< 5.00

Fill in: pIC50 of Cc1nc2ccccc2n1C(=O)c1cccc2ccccc12 is ___
< 5.00

pIC50 for COc1ccc(-c2nc3ccccc3n2C(=O)c2cccc3ccccc23)cc1 ?
5.09

* * *

Assay: Cytotoxicity against human HL60 cells assessed as reduction in cell viability measured after 72 hrs by MTT assay
Type: functional, cell-based
Conditions: HL-60, 72 h
API: label(entry) gives class 1 if the entry's IC50 is strictly smaller than 0.08 µM; on equality or larger values it gives class 0.

# count of solved cases: 3
compound	label
COc1ccc(C(=O)n2c(C3CCCCC3)nc3ccccc32)cc1	class 0
COc1cc([C@@H]2c3cc4c(cc3[C@@H](O[C@@H]3O[C@@H]5CO[C@@H](C)O[C@H]5[C@H](O)[C@H]3O)[C@H]3COC(=O)[C@H]23)OCO4)cc(OC)c1O [ETOPOSIDE]	class 0
COc1ccc(C(=O)n2c(C(C)(C)C)nc3ccccc32)cc1	class 1

Please let me know if COc1ccc(C(=O)n2c(CC(C)C)nc3ccccc32)cc1 shows IC50 below 0.08 µM.
class 1

hey, is IC50 for CC(C)(C)c1nc2ccccc2n1C(=O)c1cccc2ccccc12 lower than 0.08 µM or not?
class 0

Consider the compound COc1ccc(-c2sc3ccccc3c2C(=O)c2cccc3ccccc23)cc1 . Is its IC50 strictly less than 0.08 µM?
class 1

Determine if CC(C)c1nc2ccccc2n1C(=O)c1cccc2ccccc12 shows IC50 strictly lower than 0.08 µM.
class 1

Does COc1ccc(Cn2c(-c3ccc(OC)cc3)nc3ccccc32)cc1 have IC50 strictly under 0.08 µM?
class 1

Is 0.08 µM strictly greater than the compound's reported IC50? compound: COc1ccc(C(=O)n2c(-c3ccc(OC)cc3)nc3ccccc32)cc1
class 0

IC50 under 0.08 µM? Item: O=C(c1cccc2ccccc12)n1c(C2CCCC2)nc2ccccc21
class 0

IC50 under 0.08 µM? Item: CCc1sc2ccccc2c1C(=O)c1ccc(OC)cc1
class 1

Provenance of the data: ChEMBL document CHEMBL3872225
